Tested on: U2OS cells
Assay: Cell viability assay (WST-8), U2OS
Format: cell-based, human
Conditions: Homo sapiens, U2OS, 72 h, read-out: EC50, cell growth inhibition
pEC50: −log10 of the molar value.

- MOLECULAR STRING: "CCC(=O)N[C@@H](Cc1nc2ccc(C(C)C)cc2s1)C(=O)N[C@H](CNC(=O)CCN1CCOCC1)C1CCCCC1"
  pEC50: "< 6.00"

###

Assay: Pharmacokinetics: concentrations in mouse plasma and liver
Type: in vivo
Details: male, C57BL/6, mouse, liver, ip, 25 mg/kg, C57BL/6 male mice, 25 mg/kg IP, 1 h; read-out: Liver concentration
OBSERVATION TYPE: concentration at 1 h (ng/g)

- MOLECULAR STRING: "C=C(CN(C)C)C(=O)NC[C@@H](NC(=O)[C@H](Cc1nc2ccc(C(C)C)cc2s1)NC(=O)CC)C1CCCCC1"
  UNITS SYMBOL: "ng/g"
  OBSERVED: 3280
- MOLECULAR STRING: "C=C(CN1CCOCC1)C(=O)NC[C@@H](NC(=O)[C@H](Cc1nc2ccc(C(C)C)cc2s1)NC(=O)CC)C1CCCCC1"
  UNITS SYMBOL: "ng/g"
  OBSERVED: 783
